# maps each entry to its IC50
# System: L1210 cells
# experimental_details: L1210 cell growth inhibition
# Assay type: cell-based, Murine
# assay_conditions: Mus musculus, L1210, 96 h, read-out: IC50 (µM) 96 h
Note: unit µM is implicit; provide only the numeric part.

Reported IC50 for Cc1c(O)c(=O)ccn1CCCNCCCCNCCCN [L1-SPM-conjugate (3)] : what is it?
0.2

Reported IC50 for C[C@]1(C(=O)O)CSC(c2ccc(OCCCCNCCCNCCCN)cc2O)=N1 [NSPD-(S)-4′-(HO)-DADFT (4)] : what is it?
40

Reported IC50 for Cc1c(O)c(=O)ccn1C [L1 (2), 1,2-dimethyl-3-hydroxypyridin-4-one, reference compound] : what is it?
55

Reported IC50 for C[C@]1(C(=O)O)CSC(c2ccc(O)cc2O)=N1 [(S)-4′-(HO)-DADFT (6)] : what is it?
20

Provenance of the data: paper PMC3195516
